Reported hGLP-1R EC50 (pM) values are given for each entry in this list.
- Subject Of Test: human GLP-1 receptor (human, UniProt P43220)
- Measurement Description: cell-based or functional assay
Starred links: 1 amine or outer side, 2 acyl side, 3 side chain; linkers in the order of their positions; H or OH if unused. Non-standard residues stand in square brackets, D forms with d. Groups on a side chain read outwards from the residue. No end group written: not given here. *: point of attachment. C20 diacid = O=C(O)CCCCCCCCCCCCCCCCCCC(=O)*; C18 diacid = O=C(O)CCCCCCCCCCCCCCCCC(=O)*; γGlu = O=C(O)[C@H](CCC(=O)[*:2])N[*:1]; αMeF = C[C@](N)(Cc1ccccc1)C(=O)O; PEG4 = NCCOCCOCCOCCOCCC(=O)O; AEEA = NCCOCCOCC(=O)O; Aib = CC(C)(N)C(=O)O
Endpoint Label: hGLP-1R EC50 (pM)

[[record]]
binder = "H[Aib]HGS[αMeF]TSDVSK[αMeF]LDSRAAK([γGlu-γGlu-C20 diacid])D[αMeF]VQ[Aib]IANT-NH2 [Peptide 275]"
endpoint_label = "hGLP-1R EC50 (pM)"
unit_abbrev = "pM"
measured_value = 111

[[record]]
binder = "H[Aib]HGS[αMeF]TSDVSK[αMeF]LDSRAAK([PEG4-γGlu-γGlu-C18 diacid])D[αMeF]VQ[Aib]IANT-NH2 [Peptide 263]"
endpoint_label = "hGLP-1R EC50 (pM)"
unit_abbrev = "pM"
measured_value = 25.4

[[record]]
binder = "HSHGS[αMeF]TSDVSK[αMeF]LDSRAAK([AEEA-AEEA-γGlu-C18 diacid])D[αMeF]VQ[Aib]IANT-NH2 [Peptide 285]"
endpoint_label = "hGLP-1R EC50 (pM)"
unit_abbrev = "pM"
measured_value = 301


The origin of these recorded values is patent US12630600B2.
